Readings of shrunken log2 fold change for the listed sequences
Tested on: Escherichia coli TOP10
Test: shrunken log2 fold change of peptide-encoding DNA abundance (4.5 h post-induction vs induction); higher = less antimicrobial activity (less host growth inhibition)
Conditions: time post-induction: 4.5 h; library: site-saturation at positions 5, 18, 19, 20
Write the value as a bare number.

entry sequence | target or system | shrunken log2 fold change
RRIRARPPRLPRPRPRPPHQPRP | Escherichia coli TOP10 | 0.952
RRIRNRPPRLPRPRPRPVCFPRP | Escherichia coli TOP10 | -0.162
RRIRWRPPRLPRPRPRPSPWPRP | Escherichia coli TOP10 | 0.0588
RRIRWRPPRLPRPRPRPNNPPRP | Escherichia coli TOP10 | -0.631
RRIRNRPPRLPRPRPRPFGGPRP | Escherichia coli TOP10 | -0.133

Now turn to the next sequence.
Incoming: For the sequence RRIRKRPPRLPRPRPRPSQFPRP , what shrunken log2 fold change is on record?
Outgoing: 0.164

* * *

Test system: Escherichia coli TOP10;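 further: peptides expressed intracellularly from a pBAD plasmid library in pooled LB shake-flask culture, induced with 0.3% L-arabinose, DNA abundance read by NGS, three biological replicates, DESeq2 with apeglm shrinkage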
Experiment: shrunken log2 fold change of peptide-encoding DNA abundance (4.5 h post-induction vs induction); higher = less antimicrobial activity (less host growth inhibition)
Conditions: time post-induction: 4.5 h; library: site-saturation at positions 5, 18, 19, 20
Category key, based on recorded shrunken log2 fold change: category 1 = under -0.1, category 2 = from -0.1 up to 0.2, category 3 = 0.2 and over

entry sequence | target or system | assigned label
RRIRWRPPRLPRPRPRPFIRPRP | Escherichia coli TOP10 | category 2
RRIRIRPPRLPRPRPRPEGGPRP | Escherichia coli TOP10 | category 2
RRIRGRPPRLPRPRPRPPDLPRP | Escherichia coli TOP10 | category 3
RRIRTRPPRLPRPRPRPYGWPRP | Escherichia coli TOP10 | category 1

Incoming: Any idea which band RRIRYRPPRLPRPRPRPGVSPRP is in?
Outgoing: category 2

Incoming: One more sequence: RRIRPRPPRLPRPRPRPASLPRP
Outgoing: category 2

Incoming: One more sequence: RRIRGRPPRLPRPRPRPMFQPRP
Outgoing: category 3

Incoming: One more sequence: RRIRMRPPRLPRPRPRPEEKPRP
Outgoing: category 3

Incoming: One more sequence: RRIRFRPPRLPRPRPRPDTKPRP
Outgoing: category 1

Incoming: One more sequence: RRIRYRPPRLPRPRPRPVSKPRP
Outgoing: category 2

Incoming: One more sequence: RRIRTRPPRLPRPRPRPIMMPRP
Outgoing: category 1

Incoming: One more sequence: RRIRIRPPRLPRPRPRPYLCPRP
Outgoing: category 2

Incoming: One more sequence: RRIRPRPPRLPRPRPRPHFGPRP
Outgoing: category 2

Incoming: One more sequence: RRIRVRPPRLPRPRPRPHGKPRP
Outgoing: category 1

Incoming: One more sequence: RRIRKRPPRLPRPRPRPLCPPRP
Outgoing: category 1

Incoming: One more sequence: RRIRSRPPRLPRPRPRPGEPPRP
Outgoing: category 2

Incoming: One more sequence: RRIRARPPRLPRPRPRPEFRPRP
Outgoing: category 3

Incoming: One more sequence: RRIRERPPRLPRPRPRPMFPPRP
Outgoing: category 1

Incoming: One more sequence: RRIRDRPPRLPRPRPRPNQPPRP
Outgoing: category 2

Incoming: One more sequence: RRIRHRPPRLPRPRPRPHPFPRP
Outgoing: category 1

Incoming: One more sequence: RRIRCRPPRLPRPRPRPWWMPRP
Outgoing: category 2

Incoming: One more sequence: RRIRSRPPRLPRPRPRPIDEPRP
Outgoing: category 2

Incoming: One more sequence: RRIRHRPPRLPRPRPRPFMAPRP
Outgoing: category 1

Incoming: One more sequence: RRIRCRPPRLPRPRPRPRCSPRP
Outgoing: category 2

Incoming: One more sequence: RRIRARPPRLPRPRPRPTQNPRP
Outgoing: category 3

Incoming: One more sequence: RRIRCRPPRLPRPRPRPMKYPRP
Outgoing: category 1
